The measurements presented in this section are drawn from paper PMC5681660.

A collection of compounds and their measured Ranking score
molecular target: human NTCP (Homo sapiens, UniProt Q14973); test: Screening taurocholate uptake assay (96-well, [14C]taurocholate, 10 µM drug); details: combined ranking of functional and binding screening assays
Structures can show the parent of a compound that is named as a salt.
Just the number, please, no unit attached.

Below, each entry is followed by its recorded Ranking score result.
[
  {
    "compound": "O=C(O)Cc1ccc(-c2ccccc2)cc1",
    "measured-on": "human NTCP (Homo sapiens, UniProt Q14973)",
    "Ranking score": 476.874
  },
  {
    "compound": "CCN1CCN(C(=O)N[C@@H](C(=O)N[C@@H]2C(=O)N3[C@@H]2SC(C)(C)[C@@H]3C(=O)O)c2ccccc2)C(=O)C1=O [Piperacillin sodium salt]",
    "measured-on": "human NTCP (Homo sapiens, UniProt Q14973)",
    "Ranking score": 549.729
  },
  {
    "compound": "CN(C)CCN(Cc1ccccc1)c1ccccn1 [Tripelennamine hydrochloride]",
    "measured-on": "human NTCP (Homo sapiens, UniProt Q14973)",
    "Ranking score": 512.348
  }
]

Lab note: next compound to report on.
Challenge: Bench note: what Ranking score did "CC(=O)[C@H]1CC[C@H]2[C@@H]3CCC4=CC(=O)CC[C@]4(C)[C@H]3CC[C@]12C" show?
Response given: 609.007

###

Biological target: human NTCP (Homo sapiens, UniProt Q14973)
Sequence (Q14973 1-349): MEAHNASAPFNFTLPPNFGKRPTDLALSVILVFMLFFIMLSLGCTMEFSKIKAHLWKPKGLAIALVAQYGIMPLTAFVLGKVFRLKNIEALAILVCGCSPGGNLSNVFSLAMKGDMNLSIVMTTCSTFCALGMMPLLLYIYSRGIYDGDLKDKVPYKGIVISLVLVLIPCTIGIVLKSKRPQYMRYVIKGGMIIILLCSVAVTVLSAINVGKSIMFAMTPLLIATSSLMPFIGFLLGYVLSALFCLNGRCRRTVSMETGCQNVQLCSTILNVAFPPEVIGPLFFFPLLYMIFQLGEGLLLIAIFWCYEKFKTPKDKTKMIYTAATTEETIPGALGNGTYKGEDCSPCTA
Test: Screening taurocholate uptake assay (96-well, [14C]taurocholate, 10 µM drug)
Structures can show the parent of a compound that is named as a salt.
Ranking score by entry:
Form rule: numeric answer, no unit written next to it.

Worked set:
[
  {
    "compound": "Oc1ccc2c3c1O[C@H]1[C@@H](O)CC[C@@]4(O)[C@@H](C2)N(CC2CCC2)CC[C@]314 [Nalbuphine hydrochloride]",
    "property-label": "Ranking score",
    "quantitative-readout": 312.49
  },
  {
    "compound": "C=CCC1(CC(C)C)C(=O)NC(=O)NC1=O [Butalbital]",
    "property-label": "Ranking score",
    "quantitative-readout": 849.583
  }
]

Then this compound:
Challenge: # input compound: CC(C)c1cccc(C(C)C)c1O [Propofol] ; wanted: its Ranking score
Response given: 144.551

###

target: human NTCP (Homo sapiens, UniProt Q14973); assay: Screening taurocholate uptake assay (96-well, [14C]taurocholate, 10 µM drug)
Structures can show the parent of a compound that is named as a salt.
Ranking score under 600 gets Satisfied, anything at or over 600 gets Not satisfied.

Reference set, count: 3
[
  {
    "compound": "CC(C)NC[C@@H](O)COc1cccc2ccccc12.Cl [(R)-Propranolol hydrochloride]",
    "measured-on": "human NTCP (Homo sapiens, UniProt Q14973)",
    "group": "Not satisfied"
  },
  {
    "compound": "Oc1c(Cl)cc(Cl)c(Cl)c1Cc1c(O)c(Cl)cc(Cl)c1Cl",
    "measured-on": "human NTCP (Homo sapiens, UniProt Q14973)",
    "group": "Satisfied"
  },
  {
    "compound": "CCC(=O)O[C@@](Cc1ccccc1)(c1ccccc1)[C@@H](C)CN(C)C [Levopropoxyphene napsylate]",
    "measured-on": "human NTCP (Homo sapiens, UniProt Q14973)",
    "group": "Not satisfied"
  }
]

Challenge: Determine whether this compound shows Ranking score lower than 600 (ties excluded): COc1cccc2c1C(=O)c1c(O)c3c(c(O)c1C2=O)C[C@@](O)(C(=O)CO)C[C@@H]3O[C@H]1C[C@H](N)[C@H](O)[C@H](C)O1 [Doxorubicin hydrochloride]
Response given: Satisfied

###

molecular target: human NTCP (Homo sapiens); assay: Screening fluorescent competitive Myrcludex B-FITC binding assay (96-well, 10 µM drug); details: screen, 10 µM drug, Myrcludex B-FITC binding
Counter-ions that a name gives are not always drawn.
Below, each entry is listed with its recorded B-score binding assay.
The answer should be written as a number, with no unit following it.

The cases that follow already have their B-score binding assay on record.
[
  {
    "compound": "CC(CCc1ccccc1)NC(C)C(O)c1ccc(O)cc1 (stereo not drawn) [Nylidrin]",
    "quantitative-readout": -0.92
  },
  {
    "compound": "C=C1C[C@H]2[C@@H]3C=C(C)C4=CC(=O)CC[C@]4(C)[C@H]3CC[C@]2(C)[C@@]1(OC(C)=O)C(C)=O [Melengestrol acetate]",
    "quantitative-readout": 1.224
  },
  {
    "compound": "CC(C)OC(=O)CCC/C=C\\C[C@@H]1[C@@H](CC[C@@H](O)CCc2ccccc2)[C@H](O)C[C@@H]1O [Latanoprost]",
    "quantitative-readout": 0.817
  },
  {
    "compound": "CNCCCC12CCC(c3ccccc31)c1ccccc12 [Maprotiline hydrochloride]",
    "quantitative-readout": -0.835
  }
]

Challenge: Entry CC(C(=O)[O-])c1cccc(Oc2ccccc2)c1.CC(C(=O)[O-])c1cccc(Oc2ccccc2)c1.O.O.[Ca+2] (stereo not drawn) [Fenoprofen calcium salt dihydrate] : reported B-score binding assay = ?
Response given: 0.022

Challenge: Need B-score binding assay of OC(CCCN1CCCCC1)(c1ccccc1)c1ccccc1 [Diphenidol hydrochloride] , thanks.
Response given: 0.054

###

target: human NTCP (Homo sapiens, UniProt Q14973); assay: Screening taurocholate uptake assay (96-well, [14C]taurocholate, 10 µM drug); conditions: ranking over the functional and the binding screening assay
Counter-ions that a name gives are not always drawn.
Could you label it Satisfied if measured Ranking score is 200 or higher, and Not satisfied otherwise?

Some solved cases for reference:
[
  {
    "compound": "O=C1CC2(CCCC2)CC(=O)N1CCCCN1CCN(c2ncccn2)CC1 [Buspirone hydrochloride]",
    "group": "Satisfied"
  },
  {
    "compound": "COC(=O)C1=C(C)NC(C)=C(C(=O)OCC(C)C)C1c1ccccc1[N+](=O)[O-] (stereo not drawn)",
    "group": "Not satisfied"
  },
  {
    "compound": "C#Cc1cccc(Nc2ncnc3cc(OCCOC)c(OCCOC)cc23)c1",
    "group": "Satisfied"
  }
]

Challenge: Could you verify whether the entry "CS(=O)(=O)c1ccc([C@@H](O)[C@@H](CF)NC(=O)C(Cl)Cl)cc1" shows Ranking score of no less than 200?
Response given: Satisfied

Challenge: Tell me whether Ranking score is at least 200 here: [H]/N=C(/N)N/C(=N/[H])NCCc1ccccc1 [Phenformin hydrochloride]
Response given: Not satisfied

Challenge: Check this compound for Ranking score at or above 200: CCc1cc(C(N)=S)ccn1 [Ethionamide]
Response given: Satisfied

Challenge: Check the entry "C[C@]12CC[C@@H]3c4ccc(O)cc4CC[C@H]3[C@@H]1CC[C@@H]2O" : does Ranking score equal or exceed 200?
Response given: Not satisfied

###

# Lookup of reported viability at 2 h, 1 µM keyed by entry
experiment: in vitro; details: human, U2OS-HA-hNTCP cells
Answer in %, number only, no unit symbol.

Worked set:
[
  {
    "compound": "O=C(O)c1ccccc1Nc1cccc(C(F)(F)F)c1",
    "units-label": "%",
    "viability at 2 h, 1 µM": 125
  },
  {
    "compound": "Cc1c(Cl)cccc1Nc1ccccc1C(=O)O",
    "units-label": "%",
    "viability at 2 h, 1 µM": 116
  },
  {
    "compound": "COc1cc(C(=O)NS(=O)(=O)c2ccccc2C)ccc1Cc1cn(C)c2ccc(NC(=O)OC3CCCC3)cc12",
    "units-label": "%",
    "viability at 2 h, 1 µM": 94.7
  },
  {
    "compound": "CC(C)c1ccc2oc3nc(N)c(C(=O)O)cc3c(=O)c2c1",
    "units-label": "%",
    "viability at 2 h, 1 µM": 99.6
  },
  {
    "compound": "Cc1cc(-n2c(=O)[nH]c(=O)n(C)c2=O)ccc1Oc1ccc(SC(F)(F)F)cc1",
    "units-label": "%",
    "viability at 2 h, 1 µM": 100
  },
  {
    "compound": "O=C(O)c1cc(/N=N/c2ccc(S(=O)(=O)Nc3ccccn3)cc2)ccc1O",
    "units-label": "%",
    "viability at 2 h, 1 µM": 98.1
  }
]

// below: viability at 2 h, 1 µM requested for another compound
Challenge: Which viability at 2 h, 1 µM value belongs to CN(CCOc1ccc(CC2SC(=O)NC2=O)cc1)c1ccccn1 (stereo not shown) ?
Response given: 111
